Sourced from patent US7407940B2

# MIC100 annotations
Test system: Trychophyton rubrum
Procedure details: MIC100 against dermatophyte Trychophyton rubrum
Format: cell-based
Cond: T. rubrum; at 10 days
Where no end group is shown, it is not given here.
Write it as a number; the unit µg/mL goes unstated.

FAKALKALLKALKAL-NH2 [SEQ ID NO: 90]: 1000
FAKLLAKALKKLL-NH2 [SEQ ID NO: 87]: 500
KFKWPW-NH2 [SEQ ID NO: 1, KFKWPW-NH2]: 250
FALKALKKLKKALKKAL-NH2 [SEQ ID NO: 86]: 1000

We next turn to a different substance, shown below.
Read off the recorded MIC100 for FAKLLAKLAKKLL-NH2 [SEQ ID NO: 89] 500

----------
# MIC, lipid length SAR annotations
Test system: Salmonella typhimurium 14028S
Procedure details: MIC, broth microdilution, S. typhimurium
Format: cell-based
Set-up: unit not given here
Cond: S.typhimurium
The star is where a group is joined. Lauroyl = CCCCCCCCCCCC(=O)*; Cap = not defined here
Just the number, please.

Lau-KFKWPW-NH2 (Lauroyl-KFKWPW-NH2; SMILES CCCCCCCCCCCC(=O)N[C@@H](CCCCN)C(=O)N[C@@H](Cc1ccccc1)C(=O)N[C@@H](CCCCN)C(=O)N[C@@H](Cc1c[nH]c2ccccc12)C(=O)N1CCC[C@H]1C(=O)N[C@@H](Cc1c[nH]c2ccccc12)C(N)=O) [SEQ ID NO: 72]: 32

We next turn to a different substance, shown below.
Read off the recorded MIC, lipid length SAR for Cap-KFKWPW-NH2 (not fully specified; printed as Cap-KFKWPW-NH2; reading uncertain) [SEQ ID NO: 71] 128

----------
System: Trychophyton mentagrophytes
Procedure details: MIC100 against dermatophyte Trychophyton mentagrophytes
Type: cell-based
Cond: T. mentagrophytes; at 10 days
Where no end group is shown, it is not given here.
Assay metric: MIC100 (µg/mL)
Write it as a number; the unit µg/mL goes unstated.

FAKLLAKLAKKLL-NH2 [SEQ ID NO: 89]: 500
FALKALKKLKKALKKAL-NH2 [SEQ ID NO: 86]: 250
FAKLLAKALKKLL-NH2 [SEQ ID NO: 87]: 500
FAKALKALLKALKAL-NH2 [SEQ ID NO: 90]: 500

Read off the recorded MIC100 for KFKWPW-NH2 [SEQ ID NO: 1, KFKWPW-NH2] 250
